Experimental target: LRRK2(G2019S mutation, GST-LRRK2 (amino acids 970-2527)) (Homo sapiens (Human), UniProt Q5S007, G2019S)
Sequence (Q5S007 970-2527 G2019S): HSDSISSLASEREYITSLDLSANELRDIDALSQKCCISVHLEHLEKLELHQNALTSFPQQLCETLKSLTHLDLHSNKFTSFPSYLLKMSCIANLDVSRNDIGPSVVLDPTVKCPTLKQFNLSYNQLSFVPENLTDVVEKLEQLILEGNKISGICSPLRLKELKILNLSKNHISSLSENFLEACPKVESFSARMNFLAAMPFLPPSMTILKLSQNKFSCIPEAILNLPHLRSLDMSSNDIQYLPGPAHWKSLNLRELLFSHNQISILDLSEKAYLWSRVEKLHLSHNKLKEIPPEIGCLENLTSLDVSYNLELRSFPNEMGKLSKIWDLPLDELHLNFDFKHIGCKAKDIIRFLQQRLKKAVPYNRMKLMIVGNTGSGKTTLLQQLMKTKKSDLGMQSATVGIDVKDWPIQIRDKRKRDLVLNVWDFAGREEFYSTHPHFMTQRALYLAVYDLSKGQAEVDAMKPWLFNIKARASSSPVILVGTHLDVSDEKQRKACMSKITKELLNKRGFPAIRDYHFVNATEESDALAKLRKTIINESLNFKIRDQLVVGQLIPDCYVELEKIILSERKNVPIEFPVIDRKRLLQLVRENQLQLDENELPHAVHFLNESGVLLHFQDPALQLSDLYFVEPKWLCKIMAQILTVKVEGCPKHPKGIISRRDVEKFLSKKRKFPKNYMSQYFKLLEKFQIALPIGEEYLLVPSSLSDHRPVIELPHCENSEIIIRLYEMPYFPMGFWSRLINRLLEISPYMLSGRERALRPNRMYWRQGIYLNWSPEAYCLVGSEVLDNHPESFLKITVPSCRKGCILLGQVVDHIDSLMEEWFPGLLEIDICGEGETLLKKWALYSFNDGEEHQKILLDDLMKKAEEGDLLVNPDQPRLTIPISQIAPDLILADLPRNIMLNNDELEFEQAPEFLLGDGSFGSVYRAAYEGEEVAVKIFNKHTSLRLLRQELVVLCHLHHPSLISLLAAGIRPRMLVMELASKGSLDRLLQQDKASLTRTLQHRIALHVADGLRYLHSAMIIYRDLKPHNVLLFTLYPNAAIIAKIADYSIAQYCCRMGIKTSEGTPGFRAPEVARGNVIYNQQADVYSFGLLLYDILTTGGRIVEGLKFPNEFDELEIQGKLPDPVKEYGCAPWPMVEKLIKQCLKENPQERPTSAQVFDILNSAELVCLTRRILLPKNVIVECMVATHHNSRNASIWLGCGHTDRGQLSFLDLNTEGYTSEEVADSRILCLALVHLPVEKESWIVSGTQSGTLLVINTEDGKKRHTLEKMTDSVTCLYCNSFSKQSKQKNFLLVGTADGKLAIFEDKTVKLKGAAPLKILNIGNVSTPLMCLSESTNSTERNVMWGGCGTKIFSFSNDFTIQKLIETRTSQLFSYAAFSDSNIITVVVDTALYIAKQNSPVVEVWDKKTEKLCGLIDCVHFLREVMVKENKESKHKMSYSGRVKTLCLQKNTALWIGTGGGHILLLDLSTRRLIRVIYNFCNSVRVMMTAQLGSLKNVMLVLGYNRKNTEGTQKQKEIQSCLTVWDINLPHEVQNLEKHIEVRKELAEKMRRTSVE
Assay name: LRRK2 Km ATP LanthaScreen Assay
Study conditions: Km ATP LanthaScreen TR-FRET; G2019S LRRK2, LRRKtide substrate; mean IC50 of several tests
Under this convention, label 1 denotes IC50 strictly below 0.2 µM and label 0 denotes IC50 at or above 0.2 µM.

Molecule | Discrete label
Fc1cc(-c2cnccn2)cc2c(-c3ccnc(N4CCOCC4)c3)n[nH]c12 [Example 6] | label 1
Cc1cc(-c2cnn(C)c2)cc2c(-c3ccnc(N4CC[C@@H](F)C4)c3)n[nH]c12 [Example 12] | label 0
Cn1cc(-c2cc(Cl)c3[nH]nc(-c4ccnc(N5CCOCC5)c4)c3c2)cn1 [Example 8] | label 0
Cn1cc(-c2cc(F)c3[nH]nc(-c4ccnc(N5CC(F)C5)c4)c3c2)cn1 [Example 10] | label 1
Cc1cc(-c2cnn(C)c2)cc2c(-c3ccnc(N4CCN(S(C)(=O)=O)CC4)c3)n[nH]c12 [Example 11] | label 0
CC(C)Oc1cc(F)c2[nH]nc(-c3ccnc(N4CCOCC4)c3)c2c1 [Example 4] | label 1

Source of measurements: patent US9809568B2
